Target: KRAS Q61H (Homo sapiens (Human), UniProt P01116+P62937, Q61H)
Sequence (P01116-2 other isoform, or with tags, fused parts or gaps Q61H): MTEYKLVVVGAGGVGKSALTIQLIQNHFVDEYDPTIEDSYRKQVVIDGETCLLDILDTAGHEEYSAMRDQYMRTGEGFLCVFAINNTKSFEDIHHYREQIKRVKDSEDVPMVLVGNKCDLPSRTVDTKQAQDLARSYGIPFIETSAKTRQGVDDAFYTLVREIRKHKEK
Sequence (P62937 whole entry): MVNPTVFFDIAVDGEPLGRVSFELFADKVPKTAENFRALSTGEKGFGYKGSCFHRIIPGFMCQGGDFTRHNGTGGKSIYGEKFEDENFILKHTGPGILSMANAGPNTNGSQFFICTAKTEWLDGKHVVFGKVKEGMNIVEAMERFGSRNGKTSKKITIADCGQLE
Assay: Ras-Raf (BRAF RBD) disruption / FRET / MOA assay, KRAS Q61H
Type: biochemical
Conditions: Ras-Raf disruption/FRET/MOA assay; class symbols; read-out: KRAS Q61H FRET data IC50
Description: The purpose of this biochemical assay is to measure the ability of test compounds to facilitate ternary complex formation between a nucleotide-loaded Ras isoform and cyclophilin A; the resulting ternary complex disrupts binding to a BRAF^RBD construct, inhibiting Ras signaling through a RAF effector. […]. Compound is present in plate wells as a 10-point 3-fold dilution series starting at a final concentration of 30 μM. […]
parameter_measured: IC50

molecule: C=CC(=O)N1CC[C@H]2[C@@H]1CN2C(=O)N(C)[C@H](C(=O)N[C@H]1Cc2nc(cs2)-c2ccc3c(c2)c(c(-c2cccnc2[C@H](C)OC)n3CC)CC(C)(C)COC(=O)[C@@H]2CCCN(N2)C1=O)C(C)C (atropisomer, axis not shown)
system_under_test: KRAS Q61H (Homo sapiens (Human), UniProt P01116+P62937, Q61H)
IC50: 100 to 1000 nM

Now consider a different molecule.
Data point: CCn1c(-c2cccnc2[C@H](C)OC)c2c3cc(ccc31)-c1cccc(c1)C[C@H](NC(=O)[C@H](C(C)C)N(C)C(=O)[C@H]1CCN(C(=O)C#CC(C)(C)N(C)C)C1)C(=O)N1CCC[C@H](N1)C(=O)OCC(C)(C)C2 (atropisomer, axis not shown) [Example A339] ; IC50 = 1000 to 10000 nM

Attribution: patent US11566007B2
